self-cleavage kobs at 640 uM GlcN6P values by entry
B1: glmS ribozyme (parent)
chain: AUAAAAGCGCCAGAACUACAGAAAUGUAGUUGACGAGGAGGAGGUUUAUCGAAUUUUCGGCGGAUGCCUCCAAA

# Variants of: B1
# assay name: self-cleavage kobs at 640 uM GlcN6P; higher = faster cleavage; RNA array
# study conditions: with glucosamine-6-phosphate
This sample holds only a part of the variants without activity.

variant descriptor	outcome measure	meas value
A33C G43C C58A U69A	self-cleavage kobs at 640 uM GlcN6P	< 1e-05 s⁻¹
G29A A36G C58A	self-cleavage kobs at 640 uM GlcN6P	< 1e-05 s⁻¹
C16G G43A	self-cleavage kobs at 640 uM GlcN6P	< 1e-05 s⁻¹
U49G U56A	self-cleavage kobs at 640 uM GlcN6P	0.000105 s⁻¹
C10U G32C A36G A39U	self-cleavage kobs at 640 uM GlcN6P	< 1e-05 s⁻¹

Request the reported self-cleavage kobs at 640 uM GlcN6P associated with G32U C70G
8.68e-05 s⁻¹

Request the reported self-cleavage kobs at 640 uM GlcN6P associated with A39C
0.00208 s⁻¹

Request the reported self-cleavage kobs at 640 uM GlcN6P associated with G13A G44C U54G
< 1e-05 s⁻¹

Request the reported self-cleavage kobs at 640 uM GlcN6P associated with C10U A12U G44A U49C C70G
< 1e-05 s⁻¹

Request the reported self-cleavage kobs at 640 uM GlcN6P associated with A15U A39C
0.000287 s⁻¹
